# test system: hERG (Homo sapiens, UniProt Q12809)
# Sequence (Q12809 whole entry): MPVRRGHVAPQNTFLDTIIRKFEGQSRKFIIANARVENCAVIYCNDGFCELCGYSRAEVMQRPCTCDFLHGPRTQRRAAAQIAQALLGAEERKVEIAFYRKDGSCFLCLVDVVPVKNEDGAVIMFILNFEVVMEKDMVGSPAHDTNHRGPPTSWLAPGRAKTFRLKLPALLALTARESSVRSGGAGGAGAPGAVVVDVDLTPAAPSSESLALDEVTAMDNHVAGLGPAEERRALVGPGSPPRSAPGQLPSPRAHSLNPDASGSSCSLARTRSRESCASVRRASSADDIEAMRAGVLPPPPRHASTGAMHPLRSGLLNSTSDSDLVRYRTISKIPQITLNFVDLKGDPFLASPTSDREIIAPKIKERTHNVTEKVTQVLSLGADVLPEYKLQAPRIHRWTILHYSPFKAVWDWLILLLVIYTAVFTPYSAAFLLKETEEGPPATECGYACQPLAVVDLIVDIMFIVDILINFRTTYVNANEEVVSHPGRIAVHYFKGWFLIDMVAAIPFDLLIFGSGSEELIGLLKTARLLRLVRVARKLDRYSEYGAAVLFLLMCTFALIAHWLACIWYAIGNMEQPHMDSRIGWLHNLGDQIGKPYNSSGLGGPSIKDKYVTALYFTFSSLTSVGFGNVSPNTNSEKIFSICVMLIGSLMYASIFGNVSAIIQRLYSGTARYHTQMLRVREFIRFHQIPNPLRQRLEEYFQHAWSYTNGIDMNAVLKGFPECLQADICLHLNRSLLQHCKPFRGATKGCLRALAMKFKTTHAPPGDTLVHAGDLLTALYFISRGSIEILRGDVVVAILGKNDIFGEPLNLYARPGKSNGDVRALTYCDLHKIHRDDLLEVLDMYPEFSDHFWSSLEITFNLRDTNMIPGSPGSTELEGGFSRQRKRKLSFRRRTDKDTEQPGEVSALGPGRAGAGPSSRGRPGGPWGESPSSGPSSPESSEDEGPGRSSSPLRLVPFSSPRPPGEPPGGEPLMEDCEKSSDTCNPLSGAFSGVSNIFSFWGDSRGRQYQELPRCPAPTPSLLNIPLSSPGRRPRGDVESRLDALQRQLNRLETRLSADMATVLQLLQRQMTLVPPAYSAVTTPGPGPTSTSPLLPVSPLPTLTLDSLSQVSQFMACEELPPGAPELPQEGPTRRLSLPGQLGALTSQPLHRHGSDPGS
# experiment: Patch clamp assay (hERG tail currents, whole-cell)
# settings: 30 μM compound
measurement kind: hERG % Remaining

In the examples that follow, each entry is paired with its recorded hERG % Remaining.
compound: CNS(=O)(=O)N[C@@H]1CC[C@@H](CN2CCC3(CC2)CN(c2ncncc2Oc2ccc(F)cc2C(=O)N(C(C)C)C2CC(F)(F)C2)C3)OC1
hERG % Remaining: ++ (233% and ≤66%)

compound: CCNS(=O)(=O)N[C@H]1CC[C@H](CN2CCC3(CC2)CN(c2ncnnc2Oc2ccc(F)cc2C(=O)N(CC(F)(F)F)C(C)C)C3)OC1 (stereo in doubt)
hERG % Remaining: +++ (≥66%)

compound: CC(C)N(CC(F)F)C(=O)c1cc(F)ccc1Oc1cncnc1N1CC2(CCN(C[C@@H]3CC[C@@H](NS(=O)(=O)C4CC4)CO3)CC2)C1
hERG % Remaining: ++ (233% and ≤66%)

compound: CC(C)N(C(=O)c1cc(F)ccc1Oc1cncnc1N1CC2(CCN(C[C@@H]3CC[C@@H](NS(=O)(=O)N4CCC4)CO3)CC2)C1)C1COC1
hERG % Remaining: +++ (≥66%)

compound: CCN(C(=O)c1cc(F)ccc1Oc1cncnc1N1CC2(CCN(C[C@@H]3CC[C@@H](NS(=O)(=O)c4cccnc4)CO3)CC2)C1)C(C)C
hERG % Remaining: ++ (233% and ≤66%)

compound: CC(C)N(CC(F)F)C(=O)c1cc(F)ccc1Oc1cncnc1N1CC2(CCN(C[C@@H]3CC[C@@H](NS(=O)(=O)NC4CC4)CO3)CC2)C1
hERG % Remaining: +++ (≥66%)

compound: CCN(C(=O)c1cc(F)ccc1Oc1cncnc1N1CC2(CCN(C[C@@H]3CC[C@@H](NS(=O)(=O)NC4CC4)CO3)CC2)C1)C(C)C
hERG % Remaining: ++ (233% and ≤66%)

compound: CCS(=O)(=NC)N[C@@H]1CC[C@@H](CN2CCC3(CC2)CN(c2ncncc2Oc2ccc(F)cc2C(=O)N(C(C)C)C(C)C)C3)OC1 (stereo partly drawn)
hERG % Remaining: +++ (≥66%)

The record that follows has no hERG % Remaining shown yet.
q: Identify measured hERG % Remaining associated with CC(C)N(C(=O)c1cc(F)ccc1Oc1cncnc1N1CC2(CCN(C[C@@H]3CC[C@@H](NS(=O)(=O)C4CC4)CO3)CC2)C1)[C@H]1CCOC1
a: +++ (≥66%)
